Cited source: patent US20030068675

Target: ZFP SBS#498 (synthetic, UniProt P08047)
Sequence (P08047 other isoform, or with tags, fused parts or gaps): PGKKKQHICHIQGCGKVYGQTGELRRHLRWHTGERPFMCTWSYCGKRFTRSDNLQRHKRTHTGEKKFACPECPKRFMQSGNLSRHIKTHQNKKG
Test: EMSA
Settings: tags: MBP fusion
MEASURED_METRIC: pKd
Entry type: numeric. Quantity: pKd, the -log10 of concentration in molar units.

// sample GAAGAGGCA (dsDNA) DNA 1: GAAGAGGCA DNA 2: TGCCTCTTC , its pKd was 7.52
